Value source: PubChem BioAssay AID1963433

- System: 772245-204-R-J1-PDC complex spheroid growth
- assay-summary: Anticancer human tumor 772245-204-R-J1-PDC patient-derived rhabdomyosarcoma cell line growth inhibition [Asc]
- setup-conditions: second compound 0.0949 µM; first compound 0.1 µM; stronger effect = lower value
viability, T/C for assorted molecules

| molecule | result-units | viability, T/C |
| --- | --- | --- |
| C=C(F)C(=O)N1CCN(c2nc(OCC3CCCN3C)nc3c2CCN(c2cccc4cccc(Cl)c24)C3)CC1CC#N (stereo not given) + CCN1C(C(=O)NC23CCC(C(=O)O)(CC2)CC3)C(c2cccc(Cl)c2F)C2(C(=O)Nc3cc(Cl)ccc32)C12CCCCC2 | % | 94.5 |
| O=C(c1cc(Cc2n[nH]c(=O)c3ccccc23)ccc1F)N1CCN(C(=O)C2CC2)CC1 + CCN1C(C(=O)NC23CCC(C(=O)O)(CC2)CC3)C(c2cccc(Cl)c2F)C2(C(=O)Nc3cc(Cl)ccc32)C12CCCCC2 | % | 113 |
| Cn1ncnc1[C@H]1c2n[nH]c(=O)c3cc(F)cc(c23)N[C@@H]1c1ccc(F)cc1 + CCN1C(C(=O)NC23CCC(C(=O)O)(CC2)CC3)C(c2cccc(Cl)c2F)C2(C(=O)Nc3cc(Cl)ccc32)C12CCCCC2 | % | 91.9 |
| CCN1CCN(Cc2ccc(Nc3ncc(F)c(-c4cc(F)c5nc(C)n(C(C)C)c5c4)n3)nc2)CC1 + CCN1C(C(=O)NC23CCC(C(=O)O)(CC2)CC3)C(c2cccc(Cl)c2F)C2(C(=O)Nc3cc(Cl)ccc32)C12CCCCC2 | % | 111 |
| NC1CCC(NC2CC2c2ccccc2)CC1 (stereo not given) + CCN1C(C(=O)NC23CCC(C(=O)O)(CC2)CC3)C(c2cccc(Cl)c2F)C2(C(=O)Nc3cc(Cl)ccc32)C12CCCCC2 | % | 93.5 |
| O=C(c1ccc(F)c(F)c1Nc1ccc(I)cc1F)N1CC(O)([C@@H]2CCCCN2)C1 + CCN1C(C(=O)NC23CCC(C(=O)O)(CC2)CC3)C(c2cccc(Cl)c2F)C2(C(=O)Nc3cc(Cl)ccc32)C12CCCCC2 | % | 105 |
| COc1c(OCCCN2CCOCC2)ccc2c3n(c(=NC(=O)c4cnc(N)nc4)nc12)CCN3 + CCN1C(C(=O)NC23CCC(C(=O)O)(CC2)CC3)C(c2cccc(Cl)c2F)C2(C(=O)Nc3cc(Cl)ccc32)C12CCCCC2 | % | 57.5 |
| C=CC(=O)N1CCN(c2nc(=O)n(-c3c(C)ccnc3C(C)C)c3nc(-c4c(O)cccc4F)c(F)cc23)C(C)C1 (stereo not given) + CCN1C(C(=O)NC23CCC(C(=O)O)(CC2)CC3)C(c2cccc(Cl)c2F)C2(C(=O)Nc3cc(Cl)ccc32)C12CCCCC2 | % | 104 |
| C#Cc1c(F)ccc2cc(O)cc(-c3ncc4c(N5CC6CCC(C5)N6)nc(OCC56CCCN5CC(F)C6)nc4c3F)c12 (stereo not given) + CCN1C(C(=O)NC23CCC(C(=O)O)(CC2)CC3)C(c2cccc(Cl)c2F)C2(C(=O)Nc3cc(Cl)ccc32)C12CCCCC2 | % | 91.9 |
| CNC(C)C(=O)NC1CN(S(=O)(=O)c2cccc(S(=O)(=O)N3CCC4CCC(C(=O)NC(c5ccccc5)c5ccccc5)N4C(=O)C(NC(=O)C(C)NC)C3)c2)CCC2CCC(C(=O)NC(c3ccccc3)c3ccccc3)N2C1=O (stereo not given) + CCN1C(C(=O)NC23CCC(C(=O)O)(CC2)CC3)C(c2cccc(Cl)c2F)C2(C(=O)Nc3cc(Cl)ccc32)C12CCCCC2 | % | 89.7 |

----------
viability, T/C for assorted molecules
- System: 772245-204-R-J1-PDC complex spheroid growth
- assay-summary: Anticancer human tumor 772245-204-R-J1-PDC cell line growth inhibition [Asc];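 also: compound exposure lasted seven days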;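 as to viability, T/C: 100% = DMSO vehicle control viability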
- setup-conditions: second compound 1 µM; first compound 0.03 µM; stronger effect = lower value

| molecule | measurement-target | viability, T/C |
| --- | --- | --- |
| Cc1nc(N2CCC3(CC2)COC(C)C3N)c(CO)nc1Sc1ccnc(N)c1Cl (stereo unspecified) + CNC(C)C(=O)NC1CN(S(=O)(=O)c2cccc(S(=O)(=O)N3CCC4CCC(C(=O)NC(c5ccccc5)c5ccccc5)N4C(=O)C(NC(=O)C(C)NC)C3)c2)CCC2CCC(C(=O)NC(c3ccccc3)c3ccccc3)N2C1=O | 772245-204-R-J1-PDC complex spheroid growth | 89% |
| CCN1C(C(=O)NC23CCC(C(=O)O)(CC2)CC3)C(c2cccc(Cl)c2F)C2(C(=O)Nc3cc(Cl)ccc32)C12CCCCC2 (stereo unspecified) + CNC(C)C(=O)NC1CN(S(=O)(=O)c2cccc(S(=O)(=O)N3CCC4CCC(C(=O)NC(c5ccccc5)c5ccccc5)N4C(=O)C(NC(=O)C(C)NC)C3)c2)CCC2CCC(C(=O)NC(c3ccccc3)c3ccccc3)N2C1=O | 772245-204-R-J1-PDC complex spheroid growth | 105% |
| NC(=O)C(=Cn1cnc(-c2cc(C(F)(F)F)cc(C(F)(F)F)c2)n1)c1cncnc1 + CNC(C)C(=O)NC1CN(S(=O)(=O)c2cccc(S(=O)(=O)N3CCC4CCC(C(=O)NC(c5ccccc5)c5ccccc5)N4C(=O)C(NC(=O)C(C)NC)C3)c2)CCC2CCC(C(=O)NC(c3ccccc3)c3ccccc3)N2C1=O | 772245-204-R-J1-PDC complex spheroid growth | 102% |
| Cc1nc(N2CCC3(CC2)COC(C)C3N)c(CO)nc1Sc1ccnc(N)c1Cl (stereo unspecified) + Cc1c(S(C)(=O)=O)c(-c2cc(F)cc(N3CCN(c4ccc(NS(=O)(=O)c5ccc(NC(CCN6CCC(C(=O)OCCCP(=O)(O)O)CC6)CSc6ccccc6)c(S(=O)(=O)C(F)(F)F)c5)cc4)CC3)c2)c(-c2ccc(Cl)cc2)n1C(C)C | 772245-204-R-J1-PDC complex spheroid growth | 63.7% |
| NC(=O)C(=Cn1cnc(-c2cc(C(F)(F)F)cc(C(F)(F)F)c2)n1)c1cncnc1 + Cc1c(S(C)(=O)=O)c(-c2cc(F)cc(N3CCN(c4ccc(NS(=O)(=O)c5ccc(NC(CCN6CCC(C(=O)OCCCP(=O)(O)O)CC6)CSc6ccccc6)c(S(=O)(=O)C(F)(F)F)c5)cc4)CC3)c2)c(-c2ccc(Cl)cc2)n1C(C)C | 772245-204-R-J1-PDC complex spheroid growth | 8.43% |
| CCN1C(C(=O)NC23CCC(C(=O)O)(CC2)CC3)C(c2cccc(Cl)c2F)C2(C(=O)Nc3cc(Cl)ccc32)C12CCCCC2 (stereo unspecified) + Cc1c(S(C)(=O)=O)c(-c2cc(F)cc(N3CCN(c4ccc(NS(=O)(=O)c5ccc(NC(CCN6CCC(C(=O)OCCCP(=O)(O)O)CC6)CSc6ccccc6)c(S(=O)(=O)C(F)(F)F)c5)cc4)CC3)c2)c(-c2ccc(Cl)cc2)n1C(C)C | 772245-204-R-J1-PDC complex spheroid growth | 49.2% |

----------
- System: 772245-204-R-J1-PDC complex spheroid growth
- assay-summary: Anticancer human tumor 772245-204-R-J1-PDC cell line growth inhibition [Asc];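 also: compound exposure lasted seven days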
- setup-conditions: curve of first compound; second compound 0.0949 µM
- Text: Multicellular complex tumor spheroid response to apoptosis pathway targeting inhibitors Alrizomadlin, Pelcitoclax, and Dasminapant in combination with a variety of drugs and investigational agents in selected tumor cell lines […] Compounds. […] If the clinical Cmax for an agent had not been determined, the highest concentration tested was 10 microM. […]
IC50 for assorted molecules
readout-kind: IC50

| molecule | readout-kind | observed-value |
| --- | --- | --- |
| O=C(c1cc(Cc2n[nH]c(=O)c3ccccc23)ccc1F)N1CCN(C(=O)C2CC2)CC1 + CCN1C(C(=O)NC23CCC(C(=O)O)(CC2)CC3)C(c2cccc(Cl)c2F)C2(C(=O)Nc3cc(Cl)ccc32)C12CCCCC2 | IC50 | > 10 µM |
| C=CC(=O)N1CCN(c2nc(=O)n(-c3c(C)ccnc3C(C)C)c3nc(-c4c(O)cccc4F)c(F)cc23)C(C)C1 (stereo not given) + CCN1C(C(=O)NC23CCC(C(=O)O)(CC2)CC3)C(c2cccc(Cl)c2F)C2(C(=O)Nc3cc(Cl)ccc32)C12CCCCC2 | IC50 | > 10 µM |
| O=C(c1ccc(F)c(F)c1Nc1ccc(I)cc1F)N1CC(O)([C@@H]2CCCCN2)C1 + CCN1C(C(=O)NC23CCC(C(=O)O)(CC2)CC3)C(c2cccc(Cl)c2F)C2(C(=O)Nc3cc(Cl)ccc32)C12CCCCC2 | IC50 | > 1 µM |
| NC1CCC(NC2CC2c2ccccc2)CC1 (stereo not given) + CCN1C(C(=O)NC23CCC(C(=O)O)(CC2)CC3)C(c2cccc(Cl)c2F)C2(C(=O)Nc3cc(Cl)ccc32)C12CCCCC2 | IC50 | > 0.1 µM |
| Cc1nc(N2CCC3(CC2)COC(C)C3N)c(CO)nc1Sc1ccnc(N)c1Cl (stereo not given) + CCN1C(C(=O)NC23CCC(C(=O)O)(CC2)CC3)C(c2cccc(Cl)c2F)C2(C(=O)Nc3cc(Cl)ccc32)C12CCCCC2 | IC50 | > 3 µM |
